Data provenance: paper PMC6131161

# Run Description: Plasma pharmacokinetics in healthy volunteers (LC-MS/MS, non-compartmental analysis)
# Measurement Setup: human, plasma, po, AUC(0–8), pyrazinamide levels in plasma; PZA + C, pyrazinamide 25 mg/kg with celecoxib 400 mg oral; geometric mean (min, max)
Measured Quantity: AUC(0-t) (µg·h/mL)
Answer with a number only, understood to be in µg·h/mL.

Prompt: Record request: AUC(0-t) value, item NC(=O)c1cnccn1 [Pyrazinamide, pyrazinamide]
Response: 212

----------
# Run Description: clinical
# Measurement Setup: human, in vivo, po, 10 mg/kg, Tmax
Measured Quantity: Tmax (h)
Answer with a number only, understood to be in h.

Prompt: Record request: Tmax value, item CO[C@H]1/C=C/O[C@@]2(C)Oc3c(C)c(O)c4c(O)c(c(/C=N/N5CCN(C)CC5)c(O)c4c3C2=O)NC(=O)/C(C)=C\C=C\[C@H](C)[C@H](O)[C@@H](C)[C@@H](O)[C@@H](C)[C@H](OC(C)=O)[C@@H]1C [Rifampicin, rifampicin]
Response: 1
